Test system: Staphylococcus epidermidis
PROCEDURE TEXT: Antibacterial activity against Staphylococcus epidermidis ATCC 12228 assessed as inhibition of visible growth
Assay type: functional
// values below are reported MIC
Your answer is read as µg/mL, so omit the unit and give the number.

COMPOUND STRING: C=C(C)[C@@H]1CC[C@]2(C)[C@H](CC=C3[C@@H]4C[C@@](C)(C(=O)O)CC[C@]4(C)CC[C@]32C)[C@@]1(C)CCC(=O)OC
MEASUREMENT LABEL: MIC
UNIT DESCRIPTOR: µg/mL
OBSERVED RESULT: 3.12
--
COMPOUND STRING: C=C(C)[C@@H]1CC[C@]2(C)[C@H](CC=C3[C@@H]4C[C@@](C)(C(=O)O)CC[C@]4(C)CC[C@]32C)[C@@]1(C)CCC(=O)O
MEASUREMENT LABEL: MIC
UNIT DESCRIPTOR: µg/mL
OBSERVED RESULT: 12.5

-- ask Please look up its MIC: CC1(C)CC[C@]2(C)CC[C@]3(C)C(=CC[C@@H]4[C@@](C)(CCC(=O)O)[C@H](C(C)(C)O)CC[C@]43C)[C@@H]2C1
-- reply 12.5

-- ask Subsequent entry: C=CCc1ccc(O)c(-c2cc(CC=C)ccc2O)c1
-- reply 12.5

---

Tested on: Staphylococcus epidermidis
PROCEDURE TEXT: Antibacterial activity against Staphylococcus epidermidis ATCC 12228 assessed as inhibition of visible growth
Assay type: functional
MEASUREMENT LABEL: MIC

Below, each entry is followed by its recorded MIC result.
COMPOUND STRING: CC(C)(C(=O)O)[C@@H]1CC[C@]2(C)[C@H](CC=C3[C@@H]4C[C@@](C)(C(=O)O)CC[C@]4(C)CC[C@]32C)[C@@]1(C)C(=O)O
MIC: > 50 µg/mL

COMPOUND STRING: CC1(C)CC[C@]2(C)CC[C@]3(C)C(=CC=C4[C@@](C)(CCC(=O)O)[C@H](C(C)(C)O)CC[C@]43C)[C@@H]2C1
MIC: > 50 µg/mL

For the next question, use this molecule.
-- ask Please look up its MIC: C=C(C)[C@@H]1CC[C@]2(C)[C@H](CC[C@@H]3[C@H]4[C@H](C(C)(C)O)CC[C@]4(C)CC[C@]32C)[C@@]1(C)CCC(=O)O
-- reply > 50 µg/mL
